B1: HDV Ribozyme (parent)
chain: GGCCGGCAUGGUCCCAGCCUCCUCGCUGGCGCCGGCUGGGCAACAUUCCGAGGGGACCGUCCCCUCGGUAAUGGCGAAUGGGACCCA

Variants of: B1
test details: self-cleavage, relative activity (ratio to wild type); higher = more cleavage; co-transcriptional
recorded metric: self-cleavage
In your answer, state the number alone without any accompanying words.

# self-cleavage lookup, item C13U G73C
0.123

Can you check U37G G39A next?
0.0811

Can you check G11U C30G next?
0.0767

Can you check U37C A70C next?
1.04

Can you check G6C U47A next?
0.0875

Can you check G31C U69C next?
0.534

Can you check U60G G68U next?
0.762

Can you check C19A C63A next?
0.153

Can you check G5A U20A next?
0.0437

Can you check A8U G40A next?
0.892

Can you check U9C G52U next?
1.06

Can you check C24U C63A next?
0.753

Can you check A8G U37A next?
0.147

Can you check U23A G73U next?
0.464

Can you check G25A G28U next?
0.0185

Can you check U72C U79G next?
0.133

Can you check C18U C33A next?
0.0354

Can you check G39C G82U next?
0.0791

Can you check G17C C41G next?
0.0354

Can you check G38U C44G next?
0.0652

Can you check C13G C22G next?
0.131

Can you check G6C G17C next?
0

Can you check C4A G67C next?
0.348

Can you check U72A A77G next?
0.57

Can you check `C49G` next?
0.905

Can you check A42C A51G next?
0.26

Can you check G10C C85U next?
1.07

Can you check C49U G68U next?
0.817

Can you check C7G C61G next?
0.287

Can you check C4A U20G next?
0

Can you check C19A A77G next?
0.0302

Can you check U27C A56G next?
0.575

Can you check G38C C57A next?
0.102

Can you check C26A C75U next?
0.203

Can you check C7U A87C next?
0.968

Can you check C24A A43C next?
0.0415

Can you check U23G C66A next?
0.724

Can you check U12C U47C next?
0.185

Can you check C14A C61A next?
0.878

Can you check A78U C85G next?
0.326

Can you check A51G G53A next?
0.831

Can you check U9C G29U next?
0.115

Can you check C4U G38U next?
0.13

Can you check A42C C86U next?
0.178

Can you check G5A C14G next?
0.0639

Can you check U9G G10A next?
1.25
